Kindly state mass density for each of the entries shown.
# EXPERIMENTAL SETUP: 298.15 K; 101.33 kPa; Liquid
The reply should be a number in kg/m3, with the unit left off.

input: Form field: reported mass density of CCCO
output: 799.5

input: For the compound shown here, CC(C)O , give the reported mass density.
output: 780.9

input: Need mass density of CCO , thanks.
output: 785

input: What value of mass density has been reported for the following compound? CCCCCO
output: 810.9

input: Name the recorded mass density for CCC(C)O (stereo not drawn) .
output: 802.4

input: Field request: mass density | item: CCOC(=O)OCC [diethyl carbonate]
output: 969.1

input: Param item = CCCCO ; retrieve measured mass density.
output: 805.9

input: Could you share which mass density value was measured for CO ?
output: 786.6
